Can you tell me viability, T/C for the items I'm about to list?
- Tested on: 966289-007-R4-J1-PDC complex spheroid viability
- assayOverview: Anticancer human tumor 966289-007-R4-J1-PDC patient-derived pancreatic adenocarcinoma cell line growth inhibition [RAS]
- conditionNotes: second compound 0.0316 µM; first compound 0.1 µM; stronger effect = lower value
Numbers only, in %.

Solved cases (3 shown):
| molecule | readingUnit | viability, T/C |
| --- | --- | --- |
| CC(C)NCC(C(=O)N1CCN(c2ncnc3c2C(C)CC3O)CC1)c1ccc(Cl)cc1 (stereo not drawn) + C=CC(=O)N1CCN(c2nc(OCC3CCCN3C)nc3c(F)c(-c4nc(N)cc(C)c4C(F)(F)F)c(Cl)cc23)C(C)C1 | % | 110 |
| CC(C)n1nc(-c2ccc3oc(N)nc3c2)c2c(N)ncnc21 + C=CC(=O)N1CCN(c2nc(OCC3CCCN3C)nc3c(F)c(-c4nc(N)cc(C)c4C(F)(F)F)c(Cl)cc23)C(C)C1 | % | 18.9 |
| C[C@@H](NC(=O)c1ncnc(N)c1Cl)c1ncc(C(=O)Nc2cc(C(F)(F)F)c(Cl)cn2)s1 + C=CC(=O)N1CCN(c2nc(OCC3CCCN3C)nc3c(F)c(-c4nc(N)cc(C)c4C(F)(F)F)c(Cl)cc23)C(C)C1 | % | 113 |

For each of the molecules below, note its viability, T/C.
1. Nc1ccn(C2OC(CO)C(O)C2(F)F)c(=O)n1 (stereo not drawn) + C#Cc1c(F)ccc2cc(O)cc(-c3ncc4c(N5CC6CCC(C5)N6)nc(OCC56CCCN5CC(F)C6)nc4c3F)c12
2. CC(Nc1ccc2c(c1)OCCn1cc(N3C(=O)OCC3C(F)F)nc1-2)C(N)=O (stereo not drawn) + C=CC(=O)N1CCN(c2nc(OCC3CCCN3C)nc3c(F)c(-c4nc(N)cc(C)c4C(F)(F)F)c(Cl)cc23)C(C)C1
3. CCC(CC)c1cc(NC2CCC(N)C2)n2nccc2n1 (stereo not drawn) + C=CC(=O)N1CCN(c2nc(OCC3CCCN3C)nc3c(F)c(-c4nc(N)cc(C)c4C(F)(F)F)c(Cl)cc23)C(C)C1

Reply:
[1.41, 110, 102]

Hi, could you look up viability, T/C for each item in my list?
1. CC(Nc1ccc2c(c1)OCCn1cc(N3C(=O)OCC3C(F)F)nc1-2)C(N)=O (stereo not drawn) + C#Cc1c(F)ccc2cc(O)cc(-c3ncc4c(N5CC6CCC(C5)N6)nc(OCC56CCCN5CC(F)C6)nc4c3F)c12
2. Nc1ccn(C2OC(CO)C(O)C2(F)F)c(=O)n1 (stereo not drawn) + C=CC(=O)N1CCN(c2nc(OCC3CCCN3C)nc3c(F)c(-c4nc(N)cc(C)c4C(F)(F)F)c(Cl)cc23)C(C)C1

Reply:
106
1.37

* * *

- Test system: 966289-007-R4-J1-PDC complex spheroid viability
- assayOverview: Anticancer human tumor 966289-007-R4-J1-PDC cell line growth inhibition [RAS];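 also: spheroids exposed to agents for one week before readout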
- conditionNotes: curve of first compound; second compound 0.0949 µM
pIC50: −log10 of the molar value.
readoutType: pIC50

Your task in this section: give pIC50 for each listed record.
1. CCN1CCN(Cc2ccc(Nc3ncc(F)c(-c4cc(F)c5nc(C)n(C(C)C)c5c4)n3)nc2)CC1 + CCn1c(-c2cc(N3CCN(C)CC3)cnc2C(C)OC)c2c3cc(ccc31)-c1csc(n1)CC(NC(=O)C1CC1C)C(=O)N1CCCC(N1)C(=O)OCC(C)(C)C2
2. C[C@@H](NC(=O)c1ncnc(N)c1Cl)c1ncc(C(=O)Nc2cc(C(F)(F)F)c(Cl)cn2)s1 + CCn1c(-c2cccnc2C(C)OC)c2c3cc(ccc31)N1CCOC(CC(NC(=O)C(C(C)C)N(C)C(=O)C3(F)CCN(C(=O)C#CC(C)(C)N(C)C)CC3)C(=O)N3CCCC(N3)C(=O)OCC(C)(C)C2)C1
3. O=C(c1ccc(F)c(F)c1Nc1ccc(I)cc1F)N1CC(O)([C@@H]2CCCCN2)C1 + CCn1c(-c2cccnc2C(C)OC)c2c3cc(ccc31)N1CCOC(CC(NC(=O)C(C(C)C)N(C)C(=O)C3(F)CCN(C(=O)C#CC(C)(C)N(C)C)CC3)C(=O)N3CCCC(N3)C(=O)OCC(C)(C)C2)C1
4. C=CC(=O)Nc1cc(Nc2nccc(-c3cn(C)c4ccccc34)n2)c(OC)cc1N(C)CCN(C)C + CCn1c(-c2cc(N3CCN(C)CC3)cnc2C(C)OC)c2c3cc(ccc31)-c1csc(n1)CC(NC(=O)C1CC1C)C(=O)N1CCCC(N1)C(=O)OCC(C)(C)C2
5. CCN1CCN(Cc2ccc(Nc3ncc(F)c(-c4cc(F)c5nc(C)n(C(C)C)c5c4)n3)nc2)CC1 + CCn1c(-c2cccnc2C(C)OC)c2c3cc(ccc31)N1CCOC(CC(NC(=O)C(C(C)C)N(C)C(=O)C3(F)CCN(C(=O)C#CC(C)(C)N(C)C)CC3)C(=O)N3CCCC(N3)C(=O)OCC(C)(C)C2)C1
6. Cc1nc(N2CCC3(CC2)COC(C)C3N)c(CO)nc1Sc1ccnc(N)c1Cl (stereo not drawn) + CCn1c(-c2cc(N3CCN(C)CC3)cnc2C(C)OC)c2c3cc(ccc31)-c1csc(n1)CC(NC(=O)C1CC1C)C(=O)N1CCCC(N1)C(=O)OCC(C)(C)C2
7. CC(Nc1ccc2c(c1)OCCn1cc(N3C(=O)OCC3C(F)F)nc1-2)C(N)=O (stereo not drawn) + CCn1c(-c2cc(N3CCN(C)CC3)cnc2C(C)OC)c2c3cc(ccc31)-c1csc(n1)CC(NC(=O)C1CC1C)C(=O)N1CCCC(N1)C(=O)OCC(C)(C)C2
8. CC(Nc1ccc2c(c1)OCCn1cc(N3C(=O)OCC3C(F)F)nc1-2)C(N)=O (stereo not drawn) + CCn1c(-c2cccnc2C(C)OC)c2c3cc(ccc31)N1CCOC(CC(NC(=O)C(C(C)C)N(C)C(=O)C3(F)CCN(C(=O)C#CC(C)(C)N(C)C)CC3)C(=O)N3CCCC(N3)C(=O)OCC(C)(C)C2)C1

Reply:
["< 6.00", "< 5.00", "< 6.00", "< 6.00", "< 6.00", "< 5.00", "< 5.00", "< 5.00"]

* * *

- Test system: 966289-007-R4-J1-PDC complex spheroid viability
- assayOverview: Anticancer human tumor 966289-007-R4-J1-PDC cell line growth inhibition [RAS];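 also: spheroids exposed to agents for one week before readout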
- conditionNotes: curve of first compound; second compound 0.003 µM
pIC50: −log10 of the molar value.
readoutType: pIC50

Solved cases (3 shown):
| compound | pIC50 |
| --- | --- |
| NC1c2ccccc2OC12CCN(c1cnc3c(N4CCCc5ncccc54)n[nH]c3n1)CC2 (stereo not drawn) + CCn1c(-c2cc(N3CCN(C)CC3)cnc2C(C)OC)c2c3cc(ccc31)-c1csc(n1)CC(NC(=O)C1CC1C)C(=O)N1CCCC(N1)C(=O)OCC(C)(C)C2 | < 5.00 |
| C=CC(=O)Nc1cc(Nc2nccc(-c3cn(C)c4ccccc34)n2)c(OC)cc1N(C)CCN(C)C + CCn1c(-c2cc(N3CCN(C)CC3)cnc2C(C)OC)c2c3cc(ccc31)-c1csc(n1)CC(NC(=O)C1CC1C)C(=O)N1CCCC(N1)C(=O)OCC(C)(C)C2 | < 6.00 |
| Cc1nc(N2CCC3(CC2)COC(C)C3N)c(CO)nc1Sc1ccnc(N)c1Cl (stereo not drawn) + CCn1c(-c2cccnc2C(C)OC)c2c3cc(ccc31)N1CCOC(CC(NC(=O)C(C(C)C)N(C)C(=O)C3(F)CCN(C(=O)C#CC(C)(C)N(C)C)CC3)C(=O)N3CCCC(N3)C(=O)OCC(C)(C)C2)C1 | < 5.00 |

Dear colleague, could you please provide pIC50 for the compounds listed below?
1. CCC(CC)c1cc(NC2CCC(N)C2)n2nccc2n1 (stereo not drawn) + CCn1c(-c2cccnc2C(C)OC)c2c3cc(ccc31)N1CCOC(CC(NC(=O)C(C(C)C)N(C)C(=O)C3(F)CCN(C(=O)C#CC(C)(C)N(C)C)CC3)C(=O)N3CCCC(N3)C(=O)OCC(C)(C)C2)C1
2. O=C(c1ccc(F)c(F)c1Nc1ccc(I)cc1F)N1CC(O)([C@@H]2CCCCN2)C1 + CCn1c(-c2cccnc2C(C)OC)c2c3cc(ccc31)N1CCOC(CC(NC(=O)C(C(C)C)N(C)C(=O)C3(F)CCN(C(=O)C#CC(C)(C)N(C)C)CC3)C(=O)N3CCCC(N3)C(=O)OCC(C)(C)C2)C1
3. CC1(C)CCC(Nc2ncc(C(F)(F)F)c(-c3c[nH]c4c(P(C)(C)=O)c(C#N)ccc34)n2)CN1 (stereo not drawn) + CCn1c(-c2cc(N3CCN(C)CC3)cnc2C(C)OC)c2c3cc(ccc31)-c1csc(n1)CC(NC(=O)C1CC1C)C(=O)N1CCCC(N1)C(=O)OCC(C)(C)C2
4. CCN1CCN(Cc2ccc(Nc3ncc(F)c(-c4cc(F)c5nc(C)n(C(C)C)c5c4)n3)nc2)CC1 + CCn1c(-c2cccnc2C(C)OC)c2c3cc(ccc31)N1CCOC(CC(NC(=O)C(C(C)C)N(C)C(=O)C3(F)CCN(C(=O)C#CC(C)(C)N(C)C)CC3)C(=O)N3CCCC(N3)C(=O)OCC(C)(C)C2)C1
5. CC(=O)OC12COC1CC(O)C1(C)C(=O)C(O)C3=C(C)C(OC(=O)C(O)C(NC(=O)OC(C)(C)C)c4ccccc4)CC(O)(C(OC(=O)c4ccccc4)C21)C3(C)C (stereo not drawn) + CCn1c(-c2cccnc2C(C)OC)c2c3cc(ccc31)N1CCOC(CC(NC(=O)C(C(C)C)N(C)C(=O)C3(F)CCN(C(=O)C#CC(C)(C)N(C)C)CC3)C(=O)N3CCCC(N3)C(=O)OCC(C)(C)C2)C1

Reply:
1: 5.85; 2: < 6.00; 3: 8.17; 4: < 6.00; 5: > 7.50
